target under test: T1, RBBP5 WD40 propeller (residues 2–333), Q15291
T1 chain: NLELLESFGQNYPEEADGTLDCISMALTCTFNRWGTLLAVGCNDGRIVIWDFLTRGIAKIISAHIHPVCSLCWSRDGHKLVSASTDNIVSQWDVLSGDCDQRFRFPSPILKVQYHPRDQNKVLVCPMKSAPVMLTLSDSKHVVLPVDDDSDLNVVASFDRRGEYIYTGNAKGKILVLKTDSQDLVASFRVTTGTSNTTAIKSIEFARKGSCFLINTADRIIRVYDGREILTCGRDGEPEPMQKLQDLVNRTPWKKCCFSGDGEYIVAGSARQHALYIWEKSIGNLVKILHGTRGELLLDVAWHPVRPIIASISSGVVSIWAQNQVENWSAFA
protocol text: ITC
condition parameters: chain shown with the change; 25mM Tris–HCl, 300 mM NaCl, pH 8.0
Entries and their pKd
Field pKd (float): negative decimal logarithm of the concentration in molar.

1) RBBP5_(390–480d) (C-terminal distal region 390–480 with the 422–443 loop deletion), Q15291 L399A; L400A; I457A; L459A (protein) DEELEDSKAAAYLPIAPEVEDPEENPYGPPPDGSQPPKKKPKTTNAEAQGVPNDEVHPLLGVKGDGKSK    3.43

QUERY: GET /values?readout=pKd&item= RBBP5_(CTDM) (RBBP5_(390–480d)) L470A (domain or fragment, human, UniProt Q15291 390-480, looked up, RBBP5, human, residues 390-480 with the loop 422-443 deleted, L470A; source: Rosetta cells, purified (Ni-NTA, on-beads Ulp1 digestion, SEC)) DEELEDSKALLYLPIAPEVEDPEENPYGPPPDGSQPPKKKPKTTNIELQGVPNDEVHPALGVKGDGKSK
RESULT: 4.72

The reported numbers originate from paper PMC6821195.
